- protocol description: protein stability index of a GFP-peptide fusion (GPS, HEK-293T) (PSI 1-6); higher = more stable;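 note: 24-mer peptide tiles fused after GFP, lentivirally expressed, FACS-sorted into six equal bins by GFP/DsRed ratio, decoded by Illumina sequencing, PSI is the read-weighted mean bin number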
- condition description: treatment: MLN4924 1 uM, 8 h; c terminus: a fixed tail appended
List of protein stability index values.
measurement name: protein stability index

NWGNGKRPNLETYYERVLKRKTFN [GDAP1] ... 2.79
HVPEGFDPTGPAGLGRPTPGLSQG [EHMT1] ... 4.51
AALNNHPDIMNLLIKSGAHFDATN [FEM1C] ... 2.54
QVLKKIAQKALDLPSSGEGLAFFT [HMOX1] ... 2.02
NIDETCGRHHSQSTEVQAHPYSTT [TEKT4] ... 4.54
QQPPQQQPSQQQQPPPQEEPGTPS [KLHL14] ... 5.61
QAAVAAGDVHTVRKMLEQGYSPNG [ASB7] ... 4.11
SGKWTFQRDSKRWSRLEEFDVFSP [DLC1] ... 2.53
LSLDNSPLLQSIHQLDFVQVKASS [TRIM9] ... 2.98
MRKSGAMKKGGIFSAEFLKVFIPS [BNIP3L] ... 2.26
